Would you mind telling me the reported recombinant barcode read abundance (log10) of each entry?
assay: recombinant barcode read abundance after kanamycin selection (control-corrected) (log10(CPM+1)); higher = more efficient recombination; sequences stand for … in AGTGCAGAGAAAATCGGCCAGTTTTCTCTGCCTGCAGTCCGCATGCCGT…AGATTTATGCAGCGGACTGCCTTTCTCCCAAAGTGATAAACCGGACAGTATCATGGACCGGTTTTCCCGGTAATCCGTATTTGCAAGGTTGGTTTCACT; site = the 11-nt target;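 note: IS621 recombinase and bridge RNA in Escherichia coli cells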
Numbers only.

Worked cases, recombinant barcode read abundance (log10) given:
chain sequence	result number
TACCGCTCTTGGGTTCTAACCTGTTGCTT (site TACTGCTCTAA)	0.158
TAGGCCACTTGGGTTCTAACCTGTTGCTT (site TAGGCCACTAC)	1.17
TACGCGGCTTGGGTTCTAACCTGTTGCCT (site TACGAGGCTAG)	0.0562
AGAAGTCCTTGGGTTCTAACCTGTTGCCG (site AGAAGTCCTCC)	0.121

Reported recombinant barcode read abundance (log10) ( GTATGATCTTGGGTTCTAACCTGTTGCCT (site GTATGATCTAG) ) = 1.45
